- Test system: Bacillus subtilis DB104 (SP-AmyQ fusion secretion)
- procedureDetails: AmyQ secretion efficiency, weighted average sort bin (1 = best secretion, 10 = worst) (bin number (weighted average, 1-10)); higher = lower secretion efficiency
Lab note: anything with AmyQ secretion efficiency at or over 7 counts as Met; the rest go in Not met.

1) MKKRLIAPMLLSAASLAFFAMSGSAQAAAR	Not met
2) MKVLLSALLLLLFAFAASASGKKL	Not met
3) MRKRKRRLILSAVLFLSCFFGARQTEASASKR	Not met
4) MGLGKKLSVAVAASFMSLSISLPGVQNAEG	Not met
5) MTRTGAIIAAVIVIAALITFNVRNASPG	Met

---

- Test system: Bacillus subtilis DB104 (SP-AmyQ fusion secretion)
- procedureDetails: AmyQ secretion efficiency, weighted average sort bin (1 = best secretion, 10 = worst) (bin number (weighted average, 1-10)); higher = lower secretion efficiency
Lab note: anything with AmyQ secretion efficiency at or over 2 counts as y; the rest go in n.

1. MSPVFPLILSAVLFLSCFFGARQTEASASKR	y
2. MTKKAWFLPLVCVLLIEEEEEEAASASAQTT	y
3. MKRQKQKYLLLGILCSAAVFLIGAPSRALGAEV	y
4. MIAYFGKCLLLVTIMFLGVLFGMQQVNHG	y
5. MKIRKILLSSALSFGMLISAVPALAAKK	n
6. MLTKRLLLTIYIMLLGLIAWFPGAAQAEEK	y
7. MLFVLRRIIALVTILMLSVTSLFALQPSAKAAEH	n

---

- Test system: Bacillus subtilis DB104 (SP-AmyQ fusion secretion)
- procedureDetails: AmyQ secretion efficiency, weighted average sort bin (1 = best secretion, 10 = worst) (bin number (weighted average, 1-10)); higher = lower secretion efficiency
observedProperty: AmyQ secretion efficiency

1) MPYLKRVLLLLVTGLFMSLFAVTATASCQTG	1.26
2) MNKPTKLFSTLALAAGMTAAAAGGAGTVHAQQP	2.25
3) MKNMSCKLVVSVTLFFSFLTIGPLFHAQNS	5.19
4) MGCGTQGKGSGIASFPVSAQAKDQ	6.09
5) MRYFSKAVFVIMISFLIATVNVNTAHAAID	5.65
6) MKKRKRRNFKRFIAAFLVLALMISLVPADCLAKST	3.04
7) MKKGIIRQSQSQTGLFFALSTGITGVQAAPA	7.14
8) MRNLTKTSLLLAGLCTAAQMVFVTHASCEES	4.5
9) MTKKAWFLPLVCVLLISGWLAPAASMSAQTT	3.47
10) MRKYTVKRSILLSFLSVLSGGHHESKAFPV	6.95
11) MKRLFMKARRRLFAVVFVFAVKGAPAKAETH	6.05
12) MGLKKRVSMFLVALTMCGGLFVTPAKAVKT	3.29
13) MKRKKVLLSALLLLLFAFEPSASGKKL	2.93
14) MKRSISIFITCLLITLLTMGGMIASPTSAAGT	2.97
15) MKKTIMSFVAVAALSTTAFGAHRSAKEI	5.69
16) MKVPKTMLKKRKRKLLLSLTATSVSAHYV	5.33
17) MKRRKKKVLTGSVLSLGLLVSASPAFATSP	1.34
18) MKRLKRRKLIGIMLLTFAPSAFAKQD	4.68
19) MKKAFLVFLSVVLVTTVFLVKQQESVAQRKQL	2.03
20) MKRLLVSLRVWMVFLMNWVTRKRRKKAAAAVY	5.91
21) MTGLWRSLALCGLALTLAPCAQAAEP	2.01
22) MKLKSKLLLSCLALSTVFVATTIANHPTH	4.89
23) MNLRKILLSSALSLGMLVSAAPALATSS	2.26
24) MKQIRKKRKKFMLLAMTGQTALAKDV	7.04
25) MKVPKTMLLSTAAGLLLSLTATSPPFPPVSAHYV	4.04
26) MKSKGSIMACLILFSFTITTFINTETISEFSN	7.72
27) MFKFKKNTRGGLSAALMSISLFSATASAAST	3.49
28) MKRIRIPMTLALGAALTIAPLLSFASAEEN	4.21
29) MRGKSAVLLSLIMLIAGFLISFSFQD	6.77
30) MLMKVILAAFILVGSTLGAFSFSSDASAKHV	2
31) MKLSVKIAGVLTVAAAAMTAKMYATAAGN	6.91
32) MRSKKLWISLLFALTLIFTMAFSNMSDQAAGK	2.84
33) MKQIKKKRTSFMLLAMTGQTALAKDV	6.55
34) MARKRKIIAAVIVIAALITFNVRNASPG	6.43
35) MKKGIIRFLLVSFVLFFALSTGITGVQAAPD	2.73
36) MPIKKKVMMCLAVMLVFLMMSFPTLTNSGGFKE	3.23
37) MNTAIIIAIIAAVIVIAALITFNVRNASPG	8.06
38) MRPVFPLILSAVLFLSCFFGARQTEASASED	3.13
39) MKRFILVLSFLSIIVKRRRRRTNASPM	7.31
40) MFRLLVSLRVWMVFLMNWVTPDRKTAAAAVY	7.07
41) MLKKKWMVGLLAGCLAAGGFSYNAFATPR	3.48
42) MKKVLMAFIICLSLILSVLAAPPSGTKAESV	2.94
43) MKKLIMALVILGALRKRYISADSS	7.22
44) MKTKTLFIFSAILTLSIEDEDEETFAQTA	5.99
45) MKKWIYVVLVLSIAGIGGFSVHNASS	5.06
46) MKSCKQLIVCSLAAILLLIPSVSFAKRK	2.42
47) MKKSQYFRKRRCKRVLFSVHPIAAAAADS	7.95
48) MRKRKKRLSVAVAASFMSLSISLPGVQAAEG	2.16
49) MLTKRLLTIYIMLLGLIFVILSALSAAWFPGAAQAEEK	4.31
50) MRKKCSTCQWRLVLLLSCLSGKSAYAATS	5.76
51) MAIIIAIIAAVIVIAALITFNVRNAKKR	7.34
52) MKKLLALLAVVAFAFTDSSKAKAAEA	2.03
53) MKTPKGMLLSTAAGLLLSLTATSVSAHYV	5.33
54) MTMLRKIIGWILLLCIIPLFAFTVIASYKEV	6.87
55) MKKRFFGPIILAFILFAAIAIPS	6.38

---

- System: Bacillus subtilis DB104 (SP-AmyQ fusion secretion)
- procedureDetails: AmyQ secretion efficiency, weighted average sort bin (1 = best secretion, 10 = worst) (bin number (weighted average, 1-10)); higher = lower secretion efficiency
Lab note: anything with AmyQ secretion efficiency at or over 4 counts as YES; the rest go in NO.

1. MRPVFPLILSAVLFLSCFFGARQTEASASPF	NO
2. MTKKAWFLPLVCVLLISGWLAPAASKSAQTT	YES
3. MKKQIITATTAVVLGSTLFAGAASAEEE	NO
4. MKVPKTMLLSTAAGLLLSLKKRSVSAHYV	YES
5. MKRLLVSLRVWMVFLMNWVTPDRKTEAAAVY	YES

---

- Test system: Bacillus subtilis DB104 (SP-AmyQ fusion secretion)
- procedureDetails: AmyQ secretion efficiency, weighted average sort bin (1 = best secretion, 10 = worst) (bin number (weighted average, 1-10)); higher = lower secretion efficiency
observedProperty: AmyQ secretion efficiency

1. MKRLLSTLLIGIMLLEQQPKAFAKQD	1.64
2. MRPVFPLILSAVLFLSCFFGARQTEASSSKR	3.03
3. MFNRLFRVCFLAALIMAFTLPNSNYAQKP	5.99
4. MKKKRRKLALTAAAGLGLTALHSAPAAKAAPL	2.69
5. MKRRRRPMRLALGAALTIAPLSFASAEEN	5.86
6. MTKKTKNRLISSVLSTVVISSLLFPGAAGASSK	1.56
7. MFKFKKNFRKKRSAALMSISLFSATASAAST	4.73

---

- Tested on: Bacillus subtilis DB104 (SP-AmyQ fusion secretion)
- procedureDetails: AmyQ secretion efficiency, weighted average sort bin (1 = best secretion, 10 = worst) (bin number (weighted average, 1-10)); higher = lower secretion efficiency
Lab note: anything with AmyQ secretion efficiency at or over 6 counts as Satisfied; the rest go in Not satisfied.

1) MPIKKKVMMCLAVTLVFGSMSFPTLTNVGGFKE	Not satisfied
2) MPYLKRVLLLLVTGLFMSLFAVTATASSQTG	Not satisfied
3) MKKKLAAGLTASAIVGTTLVVTPAEKATI	Satisfied
4) MSFVMNIIIALVTILMLSVTSLFALQPSAKAAEH	Not satisfied
5) MKRLLVSLRVWMVFLMNWVTPDRKTNAAAVY	Satisfied
6) MKKAAAVLLSLGLVFDKGYEPGHVAEAKTK	Not satisfied
7) MKVKRKRLLLLLFAFEPSASGKKL	Satisfied
8) MKTKTLFIFSAILTLSIFAPNEAFAQTA	Not satisfied
9) MKKWIYVVLVLSIAGIGGFSVHTASS	Satisfied
10) MKRVLTGSVLSLGLLVSASPAFATSP	Not satisfied
11) MKRLLVSLRVWMVFLMNWVTPDRKTKAAAVY	Satisfied
12) MKVPKTMLLSTAAGLLLSLDPTSVSAHYV	Not satisfied
